assayed target: T1, monkey CD22 protein (ACROBiosystems, SI2-R52Ha) (monkey (rhesus monkey in paragraph 148), UniProt H9G1X2 18-686)
T1 construct: extracellular domain; also called monkey CD22-ECD; monkey CD22-ECD-His
T1 sequence: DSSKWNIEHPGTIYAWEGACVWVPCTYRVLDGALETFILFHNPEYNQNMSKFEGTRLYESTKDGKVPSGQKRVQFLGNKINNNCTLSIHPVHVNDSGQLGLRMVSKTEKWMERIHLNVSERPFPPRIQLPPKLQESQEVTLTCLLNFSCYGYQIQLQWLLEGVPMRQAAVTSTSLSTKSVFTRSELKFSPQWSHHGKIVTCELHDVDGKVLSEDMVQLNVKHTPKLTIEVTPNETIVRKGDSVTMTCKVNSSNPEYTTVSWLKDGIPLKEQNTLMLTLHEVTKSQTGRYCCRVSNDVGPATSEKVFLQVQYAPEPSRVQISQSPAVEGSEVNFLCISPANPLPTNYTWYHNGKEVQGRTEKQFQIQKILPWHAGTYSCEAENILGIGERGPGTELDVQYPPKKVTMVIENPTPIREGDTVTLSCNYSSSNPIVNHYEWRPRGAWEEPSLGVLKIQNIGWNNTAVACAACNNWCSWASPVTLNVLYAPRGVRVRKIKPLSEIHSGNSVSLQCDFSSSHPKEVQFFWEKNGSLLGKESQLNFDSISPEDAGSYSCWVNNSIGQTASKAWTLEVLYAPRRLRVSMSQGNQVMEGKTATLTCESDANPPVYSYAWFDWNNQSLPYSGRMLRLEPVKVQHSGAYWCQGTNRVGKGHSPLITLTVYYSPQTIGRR
assay comment: ELISA, monkey CD22-ECD-His coated
Recorded EC50 (read off the curve) by entry

Below, 2 binders whose answers are already recorded.
{"binder": "F1.216.2 (antibody, human IgG1, kappa, V domains shown, Human-murine chimeric IgG1, kappa) VH: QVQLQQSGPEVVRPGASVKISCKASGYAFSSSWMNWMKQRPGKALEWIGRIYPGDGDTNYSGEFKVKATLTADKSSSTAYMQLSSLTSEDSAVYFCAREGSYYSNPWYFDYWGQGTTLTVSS VL: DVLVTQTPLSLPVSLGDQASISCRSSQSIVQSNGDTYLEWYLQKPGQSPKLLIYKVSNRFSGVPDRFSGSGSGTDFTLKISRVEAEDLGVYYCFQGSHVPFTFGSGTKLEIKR", "property measured": "EC50 (read off the curve)", "recorded result": "~0.01 nM"}
{"binder": "F2.173.9 (antibody, human IgG1, lambda, V domains shown, Human-murine chimeric IgG1, lambda) VH: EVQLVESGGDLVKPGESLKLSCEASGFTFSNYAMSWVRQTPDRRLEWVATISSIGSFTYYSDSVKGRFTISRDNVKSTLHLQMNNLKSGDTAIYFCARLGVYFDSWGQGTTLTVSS VL: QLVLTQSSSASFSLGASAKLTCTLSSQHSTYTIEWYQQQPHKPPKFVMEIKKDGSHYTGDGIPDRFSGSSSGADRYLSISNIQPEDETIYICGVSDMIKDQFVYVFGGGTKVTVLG", "property measured": "EC50 (read off the curve)", "recorded result": "0.1 to 1 nM"}

Proceed to the following item.
Data point: F1.200.11 (antibody, human IgG1, kappa, V domains shown, Human-murine chimeric IgG1, kappa) VH: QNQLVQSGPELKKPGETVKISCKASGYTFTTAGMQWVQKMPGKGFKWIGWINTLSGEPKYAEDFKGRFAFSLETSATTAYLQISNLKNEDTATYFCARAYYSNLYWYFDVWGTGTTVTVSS VL: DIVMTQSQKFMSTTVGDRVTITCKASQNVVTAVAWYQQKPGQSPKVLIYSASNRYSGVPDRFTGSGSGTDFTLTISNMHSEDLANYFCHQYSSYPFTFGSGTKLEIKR ; EC50 (read off the curve) = ~1 nM
